FYI, the data here is from patent US20130023553A1.

- protocol text: Pharmacokinetics following intravenous (IV) dosing
- Format: in vivo, Sprague-Dawley rats
- condition set: male, Sprague-Dawley, rat, plasma, iv, 1 mg/kg; read-out: Vss
Measured Vd, listed per entry for reference.
measured property: Vd

> print(dat)
                                   compound  measured.property  obs.value
1  COCCOC1C=CC2C3Cc4ccc(OC)c5c4C2(CCN3C)C1O5 (stereo not drawn)                 Vd  2.22 L/kg
2  COCCOCCOC1C=CC2C3Cc4ccc(OC)c5c4C2(CCN3C)C1O5 (stereo not drawn)                 Vd  2.25 L/kg
3  COCCOCCOCCOCCOC1C=CC2C3Cc4ccc(OC)c5c4C2(CCN3C)C1O5 (stereo not drawn)                 Vd   2.3 L/kg
